assay: NCI Yeast Anticancer Drug Screen. Data for the cln2 rad14 strain (AID 165);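 further: 0% = growth equal to vehicle treated cultures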; conditions: S. cerevisiae cln2 rad14 strain, at 50.0 µM (retest, dose inferred, filed as 5.0), active compounds read high
The panel holds about 79,000 compounds, 15% with a hit somewhere; the sample as a whole holds those more often. Calls of active or inactive are those of the source. No stated cut-off is given here; in the data, active means growth inhibition above about 70%; inactive means the rest.
What growth inhibition was measured for each of the following?

INSERT INTO results (compound, recorded_endpoint, result) VALUES
  ('CC1=C(C(=O)Nc2ccccc2C)C(c2ccccc2F)C(C(=O)Nc2ccccc2C)=C(C)N1', 'growth inhibition', '-6% (inactive)'),
  ('Cc1cccc(NC(=O)C(=O)C(C2OC(=O)c3ccccc32)[N+](=O)[O-])c1C (stereo not given)', 'growth inhibition', '79% (active)'),
  ('O=C(O)COc1ccccc1C(=O)O', 'growth inhibition', '2% (inactive)'),
  ('CCC12C=CCN3CC[C@@]4(c5cc([C@@]6(C(=O)OC)C[C@@H]7CN(CCc8c6[nH]c6ccccc86)C[C@](O)(CC)C7)c(OC)cc5N(C)[C@H]4[C@@](O)(C(=O)OC)[C@@H]1OC(=O)CCCCCCCCCCCN1C(=O)C=CC1=O)[C@H]32 (stereo not given in full)', 'growth inhibition', '95% (active)');

// for each compound in input: emit growth inhibition
1. CNC(=O)N(C)/N=C/c1ccc([N+](=O)[O-])o1
2. Cc1cc(Cl)cc2c1OCN(C)C2
3. O=C1C(=O)C(Br)(c2ccccc2)C(=O)C1c1ccccc1 (stereo not given)
4. CCN(CC)c1ccc(Cl)c2c1C(O)(C(C)C)C2(C)C (stereo not given)
5. CCCCCCC/C=C/C(=O)OC1C(OC2C(OC(CCCCCCC)CC(=O)OC(CCCCCCC)CC(=O)O)OC(C)C(O)C2O)OC(C)C(O)C1O (stereo not given)
6. CCOC(=O)C(=NNc1ccccc1)C(=O)OCC

1. 36% (inactive)
2. 96% (active)
3. 72% (active)
4. 98% (active)
5. 68% (inactive)
6. 4% (inactive)

* * *

What growth inhibition was measured for each of the following?
experiment: NCI Yeast Anticancer Drug Screen. Data for the bub3 strain (AID 167); details: S. cerevisiae bub3 mutant strain, at 5.0 µM (retest, dose inferred, filed as 0.5), active compounds read high
About 79,000 compounds went through this panel and 15% of them were active in at least one assay; those are over-represented in the sample as a whole.
Answers are plain numbers, in %.

// for each molecule in input: emit growth inhibition
1. COc1cccc2c1C(=O)c1c(O)c3c(c(O)c1C2=O)C[C@@](O)(/C(C)=N/NC(=O)c1ccc(Cl)c(Cl)c1)C[C@@H]3OC1CC(N)C(O)C(C)O1 (some centres undefined)
2. CCCCCCCC(=O)/C=C/c1ccc(C)cc1
3. O=C(Cc1nc2ccc([N+](=O)[O-])cc2[nH]c1=O)C(=O)Nc1cc(Cl)c(Cl)cc1Cl
4. Cc1[nH]c2ccccc2c1/C=C1/CCCCCCC1=O
5. CCN(CC)CCOc1c(Cl)c(Cl)c(Cl)c(Cl)c1Cl
6. CCCCNC(=O)OCCN=C1c2ccccc2C(Br)C(Br)c2ccccc21 (centres undefined)

[43, -61, -16, -2, 1, 9]

* * *

experiment: NCI Yeast Anticancer Drug Screen. Data for the sgs1 mgt1 strain (AID 161);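 further: 0% = growth of cultures given vehicle only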; conditions: S. cerevisiae sgs1 mgt1 strain, at 50.0 µM (retest, dose inferred, filed as 5.0), active compounds read high
The panel holds about 79,000 compounds, 15% with a hit somewhere; the sample as a whole holds those more often.
Class key for growth inhibition values: LOW: < 20%; MEDIUM: ≥ 20% and < 80%; HIGH: ≥ 80%

INSERT INTO assay_data (molecule, assigned_label) VALUES
  ('O=C1/C(=C/c2ccc(Cl)c(Cl)c2)CN(C(=O)CCN2CCOCC2)C/C1=C\c1ccc(Cl)c(Cl)c1', 'HIGH');

Class for C[C@@]12C[C@@H](Br)[C@H](Br)C[C@]1(C)O2 ?
LOW

Class for Cn1c(=O)nc2n(-c3ccc(Cl)cc3)c3cc(Cl)ccc3nc-2c1=O ?
LOW
